- Test system: HCT116
- assay_summary: cell viability (CellTiter-Glo) relative to plate median (fraction of plate median); higher = more viable cells
- run_conditions: 5 µM; treatment time 24 h; reporter: TCF4/Wnt
Rule for this label: Met means cell viability is less than 1; Not met means cell viability is at least 1.

CCC(C)C(=O)c1c(O)c(C)c2oc3c(C)c(O)c(C(=O)C(C)CC)c(O)c3c2c1O (stereo not given) ... Met
C[C@]12CC[C@H]3[C@@H](CCC4=CC(=O)CC[C@@]43C)[C@@H]1CC[C@@H]2O ... Not met

Then this compound:
[Q] Hello, is cell viability of the following compound strictly smaller than 1? `COc1ccc2c(c1O)-c1c(OC)c(OC)cc3c1[C@H](C2)N(C)CC3`
[A] Not met

###

- Test system: SW480
- assay_summary: cell viability (CellTiter-Glo) relative to plate median (fraction of plate median); higher = more viable cells
- run_conditions: 5 µM; treatment time 24 h; reporter: 7TFP
assay_metric: cell viability
One number for each entry.

Each molecule below has a reported value. Please supply its cell viability.
1. CC(C)N(CCC(C(N)=O)(c1ccccc1)c1ccccn1)C(C)C (stereo not given)
2. CC1(C)C2CC(=O)[C@]3(C)C(CC[C@@]4(C)[C@H](c5ccoc5)OC(=O)C5OC543)[C@@]2(C)[C@@H](O)C[C@H]1O (stereo not given in full)
3. CC1=C(O)C(=O)C=C2C1=CC=C1[C@@]2(C)CC[C@@]2(C)[C@@H]3C[C@](C)(C(=O)O)CC[C@]3(C)CC[C@]12C
4. CCn1cc(C(=O)O)c(=O)c2cc3c(cc21)OCO3
5. C=C1[C@@H]2CCC3[C@@](CC[C@@H]4[C@H](C(=O)O)C[C@@H](O[C@@H]5O[C@H](CO)[C@@H](OS(=O)(=O)O)[C@H](OS(=O)(=O)O)[C@H]5OC(=O)CC(C)C)C[C@@]34C)(C2)[C@@H]1O (stereo not given in full)

[A]
1. 0.981
2. 0.995
3. 1
4. 0.847
5. 1.01

Each molecule below has a reported value. Please supply its cell viability.
1. O=C(NC(=O)c1c(F)cccc1F)Nc1ccc(Cl)cc1
2. CC[C@@H](CO)NC(=O)[C@@H]1C=C2c3cccc4[nH]cc(c34)C[C@H]2N(C)C1
3. CC1NC(=O)C(NC(=O)c2cnc3ccccc3n2)COC(=O)C(C(C)C)N(C)C(=O)C2CSSCC(C(=O)N(C)C(C(C)C)C(=O)OCC(NC(=O)c3cnc4ccccc4n3)C(=O)NC(C)C(=O)N2C)N(C)C1=O (stereo not given)
4. CN1CCc2cc3c(cc2[C@H]1[C@@H]1OC(=O)c2c1ccc1c2OCO1)OCO3
5. NC(N)=NOCC[C@H](N)C(=O)O

[A]
1.01
0.957
0.992
1.05
1.03

Each molecule below has a reported value. Please supply its cell viability.
1. CNc1ccc(C(=O)CC(O)CCC(C)C2OC(=O)CC(O)CC(=O)CC(O)CC(O)CC(O)CC(O)CC3(O)CC(O)C(C(=O)OC)C(CC(O[C@@H]4O[C@H](C)[C@@H](O)[C@H](N)[C@@H]4O)/C=C/C=C/C=C/C=C/C=C/C=C/C=C/C2C)O3)cc1.COC(=O)C1C(O)CC2(O)CC(O)CC(O)CC(O)CC(O)CC(=O)CC(O)CC(=O)OC(C(C)CCC(O)CC(=O)c3ccc(N)cc3)C(C)/C=C/C=C/C=C/C=C/C=C/C=C/C=C/C(O[C@@H]3O[C@H](C)[C@@H](O)[C@H](N)[C@@H]3O)CC1O2 (stereo not given in full)
2. COc1ccc2c(c1OC)C(=O)O[C@H]2[C@H]1c2cc3c(cc2CCN1C)OCO3
3. C[C@@H]1CC[C@H]2[C@@H](C)C(=O)O[C@@H]3O[C@@]4(C)CC[C@@H]1[C@]32OO4
4. COc1cc2c(cc1OC)[C@@H]1C(=O)c3ccc(OC)c(CC=C(C)C)c3O[C@@H]1CO2
5. C[C@]12CCC(=O)C=C1CCc1ccc(O)cc12

[A]
[0.962, 0.992, 1.15, 0.992, 1.05]

###

For each entry below, report its cell viability value.
- Test system: DLD1
- assay_summary: cell viability (CellTiter-Glo) relative to plate median (fraction of plate median); higher = more viable cells
- run_conditions: 5 µM; treatment time 24 h; reporter: 7TFP
Answers are plain numbers.

The cases that follow already have their cell viability on record.
C[C@H]1O[C@@H](O[C@H]2[C@@H](O)C[C@H](O[C@H]3[C@@H](O)C[C@H](O[C@H]4CC[C@@]5(C)[C@H](CC[C@@H]6[C@@H]5CC[C@]5(C)[C@@H](C7=CC(=O)OC7)[C@@H](O)C[C@]65O)C4)O[C@@H]3C)O[C@@H]2C)C[C@H](O)[C@@H]1O ... 0.632
CC[C@@]1(O)C[C@H](O[C@H]2C[C@H](N(C)C)[C@H](O)[C@H](C)O2)c2c(cc3c(c2O)C(=O)c2c(O)cccc2C3=O)[C@H]1C(=O)OC ... 1.07
COS(C)(=O)=O ... 1.07

Each compound below has a reported value. Please supply its cell viability.
1. O=c1ccc2c(O)c3ccoc3cc2o1
2. C=C1C[C@@H]2[C@H](CC[C@]3(C)C(=O)CC[C@@H]23)[C@@]2(C)C=CC(=O)C=C12
3. CCCCCCCCCc1ccc(O)cc1
4. C/C=C\C(=O)O[C@@H]1C[C@H]2O[C@@H]3C=C(C)C(=O)C[C@]3(C)[C@]1(C)[C@]21CO1
5. COC(=O)[C@H]1O[C@@H]2C[C@H]3O[C@@H](n4cnc5c(N)ncnc54)[C@H](OC)[C@H]3O[C@@]2(O)[C@@H](O)[C@@H]1O
6. CCC1(CC)C(=O)C=CNC1=O
7. NNCc1ccccc1

[A]
1. 1
2. 1.03
3. 1.03
4. 0.922
5. 0.988
6. 0.965
7. 1.08

Each compound below has a reported value. Please supply its cell viability.
1. CN1[C@@H]2CC[C@H]1C[C@@H](OC(=O)C(CO)c1ccccc1)C2 (some centres undefined)
2. Cc1cc(O)ccc1Cl
3. c1cncc([C@@H]2CCCCN2)c1
4. C[C@@H]1C[C@@H]([C@H](O)CC2CC(=O)NC(=O)C2)C(=O)[C@@H](C)C1
5. COc1cc2c(cc1-c1cc3cc4ccoc4cc3oc1=O)OCO2
6. CC(=O)[C@H]1CC[C@H]2[C@@H]3CC[C@H]4C[C@H](O)CC[C@]4(C)[C@H]3CC[C@]12C

[A]
[0.911, 1.04, 0.993, 0.892, 0.964, 0.966]

Each compound below has a reported value. Please supply its cell viability.
1. COc1cc([C@@H]2c3cc4c(cc3[C@H](O)[C@H]3COC(=O)[C@@H]23)OCO4)cc(OC)c1OC
2. CC(C)=CCC[C@@H](C(=O)O)[C@H]1CC[C@@]2(C)C3=C(CC[C@]12C)[C@@]1(C)CC[C@H](O)C(C)(C)[C@@H]1CC3
3. CC(C)=CC1C(C(=O)OCc2cccc(Oc3ccccc3)c2)C1(C)C (centres undefined)

[A]
1. 1.04
2. 0.995
3. 0.971

###

- Tested on: SW480
- assay_summary: TCF/Wnt firefly luciferase reporter signal relative to plate median (fraction of plate median); higher = higher Wnt reporter signal
- run_conditions: 5 µM; treatment time 24 h; reporter: 7TFP
Quick rule: TCF/Wnt firefly luciferase reporter signal of at least 1 means true, below that means false.

See these solved cases before continuing.
COP(=S)(OC)SCn1nnc2ccccc2c1=O ... false
Cc1ccc(C[N+](C)(C)C)o1 ... false
CCCCCCCCC(=O)NCc1ccc(O)c(OC)c1 ... false
C1CCc2nnnn2CC1 ... true

[Q] Reported TCF/Wnt firefly luciferase reporter signal reaches at least 1 for `CC1=C(O)C(=O)C=C2C1=CC=C1[C@@]2(C)CC[C@@]2(C)[C@@H]3C[C@](C)(C(=O)O)CC[C@]3(C)CC[C@]12C` ?
[A] false

[Q] Reported TCF/Wnt firefly luciferase reporter signal reaches at least 1 for `COc1ccc2c(c1O)-c1c(OC)c(OC)cc3c1[C@H](C2)N(C)CC3` ?
[A] false

[Q] Reported TCF/Wnt firefly luciferase reporter signal reaches at least 1 for COc1ccc(OC)c(C(O)C(C)N)c1 (configuration not stated) ?
[A] true

[Q] Reported TCF/Wnt firefly luciferase reporter signal reaches at least 1 for `Cl[C@H]1[C@H](Cl)[C@@H](Cl)[C@@H](Cl)[C@H](Cl)[C@H]1Cl` ?
[A] true

[Q] Reported TCF/Wnt firefly luciferase reporter signal reaches at least 1 for `CC1=C2[C@H]3OC(=O)[C@@H](C)[C@@H]3CC[C@@]2(C)C=CC1=O` ?
[A] true

[Q] Reported TCF/Wnt firefly luciferase reporter signal reaches at least 1 for NCC(O)c1ccc(O)cc1 (configuration not stated) ?
[A] false

[Q] Reported TCF/Wnt firefly luciferase reporter signal reaches at least 1 for `C[C@]12CC[C@H]3[C@@H](CC[C@]4(O)C[C@@H](O)CC[C@]34C=O)[C@@]1(O)CC[C@@H]2C1=CC(=O)OC1` ?
[A] false

[Q] Reported TCF/Wnt firefly luciferase reporter signal reaches at least 1 for `CC(=O)O[C@H]1C[C@@H]2CC[C@@H]3[C@H](CC[C@@]4(C)[C@H]3C[C@H]([N+]3(C)CCCCC3)[C@@H]4OC(C)=O)[C@@]2(C)C[C@@H]1[N+]1(C)CCCCC1` ?
[A] false
